# assay-info: Cytotoxicity against normal lung fibroblast cells (unknown origin)
# Type: toxicity, cell-based
observed-property: IC50 (µM)
Express the result in µM but write the number alone.

In plain terms, O=C(O)c1c(Cl)c(Cl)c(Cl)c(Cl)c1-c1c2cc(I)c(=O)c(I)c-2oc2c(I)c(O)c(I)cc12 [ROSE BENGAL SODIUM] has a documented IC50 of 75

---

# Tested on: Human immunodeficiency virus
# assay-info: Antiviral activity against Human immunodeficiency virus
# Type: functional, organism-based
# conditions-used: Human immunodeficiency virus 1
observed-property: IC50
Include the unit after the number when you answer.

The molecule O=C(O)c1c(Cl)c(Cl)c(Cl)c(Cl)c1-c1c2cc(I)c(=O)c(I)c-2oc2c(I)c(O)c(I)cc12 [ROSE BENGAL SODIUM] , when measured on Human immunodeficiency virus, yielded IC50 of 50 nM

---

# assay-info: Cytotoxicity against normal foreskin fibroblast cells (unknown origin)
# Assay type: toxicity, cell-based
observed-property: IC50 (µM)
Note: unit µM is implicit; provide only the numeric part.

Just so you know, measured IC50 for O=C(O)c1c(Cl)c(Cl)c(Cl)c(Cl)c1-c1c2cc(I)c(=O)c(I)c-2oc2c(I)c(O)c(I)cc12 [ROSE BENGAL SODIUM] came out at 73

---

Below: a set of entries, each annotated with reported IC50.
# Tested on: HeLa
# assay-info: Cytotoxicity against human HeLa cells incubated for 48 hrs by MTT assay
# Format: functional, cell-based
Number plus unit, in that order.

{"columns": ["compound", "endpoint-result"],
 "data": [
  ["COC12C(=O)C=Cc3cc(Br)cc(c31)Oc1ccc3cc(Br)ccc3c12 (centres undefined)", "28.1 µM"],
  ["O=C1C(CO)=Cc2cccc3c2C1(O)c1c(ccc2ccccc12)O3 (centres undefined)", "68.8 µM"],
  ["O=C1C=Cc2cccc3c2C1c1c(ccc2ccccc12)O3 (centres undefined)", "18.5 µM"]
]}

Field IC50 (HeLa), entry CCOC12C(=O)C(CO)=Cc3cc(CO)cc(c31)Oc1c(CO)cc3cc(CO)ccc3c12 (centres undefined) : 9.4 µM

---

# Tested on: Plasmodium falciparum
# assay-info: Antimalarial activity against chloroquine resistant Plasmodium falciparum K1 in human erythrocytes
# Assay type: functional, organism-based
# conditions-used: K1, Erythrocyte
observed-property: pIC50
# pIC50 is unitless: minus log10 of the molar concentration; print number only

The compound identified as CN(C)CCCNCC1c2ccccc2Oc2ccccc21 registered its pIC50 at 6.11

---

# assay-info: Cytotoxicity against normal primary bone marrow fibroblast cells (unknown origin)
# Format: toxicity, cell-based
observed-property: IC50 (µM)
Hi! Could you send only the number? It should be in µM, unit omitted.

Measured IC50, O=C(O)c1c(Cl)c(Cl)c(Cl)c(Cl)c1-c1c2cc(I)c(=O)c(I)c-2oc2c(I)c(O)c(I)cc12 [ROSE BENGAL SODIUM] : 136
